Hey, just so you know, these numbers are from paper PMC7484352.

- System Under Test: bDAD (DAD V1M) (Burkholderia sp. AZ11, UniProt F7J5X4, V1M)
- Sequence (F7J5X4 1-177, stated change not applied): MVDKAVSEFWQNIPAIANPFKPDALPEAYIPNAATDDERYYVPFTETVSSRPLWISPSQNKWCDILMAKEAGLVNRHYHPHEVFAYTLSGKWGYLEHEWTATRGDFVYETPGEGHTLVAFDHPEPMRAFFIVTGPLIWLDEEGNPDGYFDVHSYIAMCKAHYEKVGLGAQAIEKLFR
- Method Summary: UV absorbance at […] nm, DHA consumption
Test Readout: pKi
The scale used: pKi is minus the common logarithm of the concentration in molar units.

For O=C(O)c1ccc(O)cc1 [4HB, 4-hydroxybenzoic acid] the compound record lists pKi as 2.96
